Some compounds, each annotated with its measured t1/2 drug DMPC Lip..
Assay: HPLC assay of lactone ring hydrolysis, free in PBS or associated with liposomes or micelles
Assay type: physicochemical
Details: DMPC liposomes, pH 7.4, 37° C.
Numeric only. Scale: h

CC[C@@]1(O)C(=O)OCc2c1cc1n(c2=O)Cc2cc3c(CN(C)C)c(O)ccc3nc2-1 : 1.25

Please turn your attention to the following entry.
Request: Record request: t1/2 drug DMPC Lip. value, item CCC1(O)C(=O)OCc2c1cc1n(c2=O)Cc2cc3c(N)cccc3nc2-1 (centres unmarked)
Result: 0.933

----------
Assay: HPLC assay of lactone ring hydrolysis, free in PBS or associated with liposomes or micelles
Format: physicochemical
Conditions: final equilibrium, free in PBS, pH 7.4, 37° C.
MEASURED QUANTITY: carboxylate/lactone ratio (C/L) free drug
Number only, please.

CCC1(O)C(=O)OCc2c1cc1n(c2=O)Cc2cc3c(N)cccc3nc2-1 (stereo not shown) [9-aminocamptothecin] : 6.0

Request: Record request: carboxylate/lactone ratio (C/L) free drug value, item CCC1(O)C(=O)OCc2c1cc1n(c2=O)Cc2cc3c(N)c4c(cc3nc2-1)OCO4 (stereo not shown) [9-amino-10,11-methylenedioxycamptothecin]
Result: 5.1

Request: Query CCC1(O)C(=O)OCc2c1cc1n(c2=O)Cc2cc3cc4c(cc3nc2-1)OCO4 (stereo not shown) [10,11-methylenedioxycamptothecin] next
Result: 3.3

Request: Query CCC1(O)C(=O)OCc2c1cc1n(c2=O)Cc2cc3cc(O)ccc3nc2-1 (stereo not shown) [10-hydroxycamptothecin] next
Result: 5.4

The values you see were collected from patent US5552156A.
